Quick reference for EC50 among some molecules
target: human TAS1R2-R317P/TAS1R3-WT (Homo sapiens, UniProt Q7RTX0+Q8TE23, R317P); test: Calcium mobilisation assay, TAS1R2 variant R317P with TAS1R3-WT
Sequence (Q8TE23 20-839 R317P, one chain of several): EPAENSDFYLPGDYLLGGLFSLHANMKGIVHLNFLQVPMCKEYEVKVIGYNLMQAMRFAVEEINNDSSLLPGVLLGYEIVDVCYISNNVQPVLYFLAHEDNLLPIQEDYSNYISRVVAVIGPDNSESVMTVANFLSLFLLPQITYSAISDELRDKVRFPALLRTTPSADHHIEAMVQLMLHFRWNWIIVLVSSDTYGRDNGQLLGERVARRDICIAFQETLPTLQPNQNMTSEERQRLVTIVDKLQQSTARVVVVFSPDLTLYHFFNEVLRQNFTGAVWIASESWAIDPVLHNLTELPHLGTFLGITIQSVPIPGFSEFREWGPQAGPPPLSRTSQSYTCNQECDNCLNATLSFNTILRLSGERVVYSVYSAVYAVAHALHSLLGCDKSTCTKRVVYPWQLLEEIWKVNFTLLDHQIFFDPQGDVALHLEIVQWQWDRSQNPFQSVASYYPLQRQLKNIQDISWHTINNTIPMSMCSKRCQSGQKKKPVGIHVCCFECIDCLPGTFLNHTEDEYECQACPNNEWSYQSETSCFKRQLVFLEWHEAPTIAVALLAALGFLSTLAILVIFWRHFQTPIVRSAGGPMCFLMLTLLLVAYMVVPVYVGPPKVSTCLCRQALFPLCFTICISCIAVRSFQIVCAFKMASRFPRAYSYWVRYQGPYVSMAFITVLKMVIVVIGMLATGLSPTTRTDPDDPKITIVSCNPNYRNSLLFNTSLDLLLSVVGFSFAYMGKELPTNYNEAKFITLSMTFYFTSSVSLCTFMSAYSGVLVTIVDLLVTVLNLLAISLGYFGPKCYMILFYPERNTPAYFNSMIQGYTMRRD
Reply with just the number (in µM).

Molecule	EC50, µM
O=S(=O)(O)NC1CCCCC1 [Cyclamate, cyclamate]	2860
COc1ccc(CCC(=O)c2c(O)cc(O[C@@H]3O[C@H](CO)[C@@H](O)[C@H](O)[C@H]3O[C@@H]3O[C@@H](C)[C@H](O)[C@@H](O)[C@H]3O)cc2O)cc1O [NHDC, neohesperidin dihydrochalcone]	171
CC1=CC(=O)NS(=O)(=O)O1 [Acesulfame K, acesulfame K]	685

Qu. What value of EC50 has been recorded for this entry: C=C1C[C@@]23CC[C@H]4[C@@](C)(CCC[C@@]4(C)C(=O)O[C@@H]4O[C@H](CO)[C@@H](O)[C@H](O[C@@H]5O[C@H](CO)[C@@H](O)[C@H](O)[C@H]5O)[C@H]4O[C@@H]4O[C@H](CO)[C@@H](O)[C@H](O)[C@H]4O)[C@@H]2CC[C@]1(O[C@@H]1O[C@H](CO)[C@@H](O)[C@H](O[C@@H]2O[C@H](CO)[C@@H](O)[C@H](O)[C@H]2O)[C@H]1O[C@@H]1O[C@H](CO)[C@@H](O)[C@H](O)[C@H]1O)C3 [Rebaudioside M, rebaudioside M]
Ans. 26.9

Qu. What value of EC50 has been recorded for this entry: C[C@H](CC[C@@H](O[C@@H]1O[C@H](CO[C@@H]2O[C@H](CO)[C@@H](O)[C@H](O)[C@H]2O)[C@@H](O)[C@H](O)[C@H]1O[C@@H]1O[C@H](CO)[C@@H](O)[C@H](O)[C@H]1O)C(C)(C)O)[C@H]1CC[C@@]2(C)[C@@H]3CC=C4[C@@H](CC[C@H](O[C@@H]5O[C@H](CO[C@@H]6O[C@H](CO)[C@@H](O)[C@H](O)[C@H]6O)[C@@H](O)[C@H](O)[C@H]5O)C4(C)C)[C@]3(C)[C@H](O)C[C@]12C [Mogroside V, mogroside V]
Ans. 27.9

Qu. What value of EC50 has been recorded for this entry: OC[C@H]1O[C@H](O[C@]2(CCl)O[C@H](CCl)[C@@H](O)[C@@H]2O)[C@H](O)[C@@H](O)[C@H]1Cl [Sucralose]
Ans. 98

Qu. What value of EC50 has been recorded for this entry: C=C(C)[C@@H]1CC=C(/C=N/O)CC1 [Perillartine, perillartine]
Ans. 35.2

Qu. What value of EC50 has been recorded for this entry: COC(=O)[C@H](Cc1ccccc1)NC(=O)[C@H](CC(=O)O)NCCC(C)(C)C [Neotame]
Ans. 0.86

----------
Quick reference for Max ΔF/F0 among some compounds
target: human TAS1R2-S212G/TAS1R3-WT (Homo sapiens, UniProt Q7RTX0+Q8TE23, S212G); construct: expressed in transfected cells; host or cells: HEK293T-Gα16gust44; experiment: Calcium mobilisation assay, TAS1R2 variant S212G with TAS1R3-WT; assay type: cell-based; details: maximal signal amplitude
Sequence (Q8TE23 20-839 S212G): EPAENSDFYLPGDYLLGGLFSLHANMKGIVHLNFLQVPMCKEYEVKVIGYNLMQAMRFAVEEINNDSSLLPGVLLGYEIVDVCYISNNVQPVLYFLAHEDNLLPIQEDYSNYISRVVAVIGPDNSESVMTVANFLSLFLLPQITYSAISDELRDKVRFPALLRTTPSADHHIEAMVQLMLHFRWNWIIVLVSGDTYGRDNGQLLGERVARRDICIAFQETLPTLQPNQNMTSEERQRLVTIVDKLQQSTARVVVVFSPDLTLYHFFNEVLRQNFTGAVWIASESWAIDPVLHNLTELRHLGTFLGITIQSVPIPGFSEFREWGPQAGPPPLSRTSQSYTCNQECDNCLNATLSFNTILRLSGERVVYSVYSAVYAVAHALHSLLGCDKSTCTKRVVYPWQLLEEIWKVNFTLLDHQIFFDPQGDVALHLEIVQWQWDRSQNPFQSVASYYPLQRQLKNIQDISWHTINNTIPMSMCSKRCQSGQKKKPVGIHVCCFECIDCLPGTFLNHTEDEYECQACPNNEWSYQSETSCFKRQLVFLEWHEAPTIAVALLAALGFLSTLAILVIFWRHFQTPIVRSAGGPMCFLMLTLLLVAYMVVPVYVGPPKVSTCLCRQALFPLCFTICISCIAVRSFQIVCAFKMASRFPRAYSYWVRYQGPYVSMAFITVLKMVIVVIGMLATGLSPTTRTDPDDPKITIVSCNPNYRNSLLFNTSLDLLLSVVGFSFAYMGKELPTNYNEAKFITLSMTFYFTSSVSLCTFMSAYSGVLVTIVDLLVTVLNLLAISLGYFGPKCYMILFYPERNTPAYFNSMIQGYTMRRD
Sequence (Q7RTX0 21-852): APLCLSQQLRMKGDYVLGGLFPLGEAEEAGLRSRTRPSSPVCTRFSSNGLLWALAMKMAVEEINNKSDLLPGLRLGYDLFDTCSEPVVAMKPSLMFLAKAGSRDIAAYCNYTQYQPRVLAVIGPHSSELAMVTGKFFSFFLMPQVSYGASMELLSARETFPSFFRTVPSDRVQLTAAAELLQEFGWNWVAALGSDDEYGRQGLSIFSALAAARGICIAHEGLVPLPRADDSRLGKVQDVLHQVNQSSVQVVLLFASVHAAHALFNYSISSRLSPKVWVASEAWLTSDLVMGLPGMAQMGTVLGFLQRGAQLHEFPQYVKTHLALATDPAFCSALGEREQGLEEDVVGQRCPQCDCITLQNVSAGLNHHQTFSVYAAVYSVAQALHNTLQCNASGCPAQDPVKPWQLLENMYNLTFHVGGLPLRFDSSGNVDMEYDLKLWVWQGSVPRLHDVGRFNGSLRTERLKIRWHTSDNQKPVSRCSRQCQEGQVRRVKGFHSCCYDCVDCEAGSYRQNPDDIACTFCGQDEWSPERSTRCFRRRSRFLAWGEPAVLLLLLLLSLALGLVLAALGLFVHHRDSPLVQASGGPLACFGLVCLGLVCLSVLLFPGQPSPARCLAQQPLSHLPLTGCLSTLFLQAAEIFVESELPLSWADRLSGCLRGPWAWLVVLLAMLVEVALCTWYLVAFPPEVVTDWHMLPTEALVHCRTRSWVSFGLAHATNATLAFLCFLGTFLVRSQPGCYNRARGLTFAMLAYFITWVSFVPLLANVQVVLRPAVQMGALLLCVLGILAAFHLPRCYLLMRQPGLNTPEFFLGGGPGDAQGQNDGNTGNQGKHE
Please reply with the number alone, leaving off any unit.

Use the examples below as a reference point.
Compound	Subject of test	Max ΔF/F0
COC(=O)[C@H](Cc1ccccc1)NC(=O)[C@H](CC(=O)O)NCCC(C)(C)C	human TAS1R2-S212G/TAS1R3-WT (Homo sapiens, UniProt Q7RTX0+Q8TE23, S212G)	0.63
C=C1C[C@@]23CC[C@H]4[C@@](C)(CCC[C@@]4(C)C(=O)O[C@@H]4O[C@H](CO)[C@@H](O)[C@H](O[C@@H]5O[C@H](CO)[C@@H](O)[C@H](O)[C@H]5O)[C@H]4O[C@@H]4O[C@H](CO)[C@@H](O)[C@H](O)[C@H]4O)[C@@H]2CC[C@]1(O[C@@H]1O[C@H](CO)[C@@H](O)[C@H](O[C@@H]2O[C@H](CO)[C@@H](O)[C@H](O)[C@H]2O)[C@H]1O[C@@H]1O[C@H](CO)[C@@H](O)[C@H](O)[C@H]1O)C3 [Rebaudioside M, rebaudioside M]	human TAS1R2-S212G/TAS1R3-WT (Homo sapiens, UniProt Q7RTX0+Q8TE23, S212G)	1.14
C=C(C)[C@@H]1CC=C(/C=N/O)CC1	human TAS1R2-S212G/TAS1R3-WT (Homo sapiens, UniProt Q7RTX0+Q8TE23, S212G)	1.30

Qu. What value of Max ΔF/F0 has been recorded for this entry: COc1ccc(CCC(=O)c2c(O)cc(O[C@@H]3O[C@H](CO)[C@@H](O)[C@H](O)[C@H]3O[C@@H]3O[C@@H](C)[C@H](O)[C@@H](O)[C@H]3O)cc2O)cc1O [NHDC, neohesperidin dihydrochalcone]
Ans. 0.84

Qu. What value of Max ΔF/F0 has been recorded for this entry: `CC1=CC(=O)NS(=O)(=O)O1`
Ans. 0.28

Qu. What value of Max ΔF/F0 has been recorded for this entry: `OC[C@H]1O[C@H](O[C@]2(CCl)O[C@H](CCl)[C@@H](O)[C@@H]2O)[C@H](O)[C@@H](O)[C@H]1Cl`
Ans. 0.64

Qu. What value of Max ΔF/F0 has been recorded for this entry: C[C@H](CC[C@@H](O[C@@H]1O[C@H](CO[C@@H]2O[C@H](CO)[C@@H](O)[C@H](O)[C@H]2O)[C@@H](O)[C@H](O)[C@H]1O[C@@H]1O[C@H](CO)[C@@H](O)[C@H](O)[C@H]1O)C(C)(C)O)[C@H]1CC[C@@]2(C)[C@@H]3CC=C4[C@@H](CC[C@H](O[C@@H]5O[C@H](CO[C@@H]6O[C@H](CO)[C@@H](O)[C@H](O)[C@H]6O)[C@@H](O)[C@H](O)[C@H]5O)C4(C)C)[C@]3(C)[C@H](O)C[C@]12C [Mogroside V, mogroside V]
Ans. 1.32
